Record form. Attribute: Number of multipolar cells. Fill in for each entry.
test system: HeLa cell line (HeLa S3); experiment: Multipolarity-inducing activity assay 2 (cells synchronized in G2 phase (or M phase) by nocodazole); format: cell-based; conditions: peptide 10 μM; HeLa S3 synchronized in G2 phase (M phase); count among 75 M-phase cells
Enter the number alone.

[in] Number of multipolar cells for CSSATGKSC [Sample 1] ?
[out] 47

[in] Number of multipolar cells for CGHRPYQYC [Sample 4] ?
[out] 47

[in] Number of multipolar cells for CHILHAQAC [Sample 8] ?
[out] 51

[in] Number of multipolar cells for CLAPSPSKCKKRFLRKNDRKKR (CLAPSPSKCKKRTLRKNDRKKR) [Sample 14] ?
[out] 46

[in] Number of multipolar cells for CLTKSYTSC [Sample 12] ?
[out] 48

[in] Number of multipolar cells for CPRPPSLEC [Sample 9] ?
[out] 55
